# target-system: human adenosine A2a receptor (Homo sapiens, UniProt P29274)
# Sequence (P29274 whole entry): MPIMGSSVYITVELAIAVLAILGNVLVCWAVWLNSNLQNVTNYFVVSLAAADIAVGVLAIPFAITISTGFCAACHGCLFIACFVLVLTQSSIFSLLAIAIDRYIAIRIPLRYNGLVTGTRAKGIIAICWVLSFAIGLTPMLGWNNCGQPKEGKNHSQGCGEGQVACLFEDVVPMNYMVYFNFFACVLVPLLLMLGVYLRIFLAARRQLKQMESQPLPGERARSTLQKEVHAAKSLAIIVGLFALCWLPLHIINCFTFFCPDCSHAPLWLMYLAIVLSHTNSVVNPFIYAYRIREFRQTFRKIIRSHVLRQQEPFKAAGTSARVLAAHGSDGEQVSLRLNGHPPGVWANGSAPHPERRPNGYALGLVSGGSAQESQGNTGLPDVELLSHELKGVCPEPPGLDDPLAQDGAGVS
# test-summary: Adenosine A2a Receptor Functional Assay (A2AGAL2)
# details: CHO-K1 cells, cAMP inducible beta-galactosidase reporter, 15 nM NECA agonist challenge
// values below are reported Ki

query: Which measured Ki value corresponds to CN(C)Cc1cc2c(N)nc(-c3ccco3)nc2s1 ?
result: 143 nM

query: Quick check: Ki of C[C@@H]1CCC[C@H](C)N1Cc1cc2c(N)nc(-c3ccon3)nc2s1 ?
result: 130 nM

query: Given Nc1nc(-c2ccc(C(F)F)o2)nc2sc(CN3CCCC(F)(F)C3)cc12 , state its recorded Ki.
result: 42.5 nM

query: What does the record list as Ki for Nc1nc(-c2ncco2)nc2sc(CN3CCOCC3)cc12 ?
result: 356 nM

Next:
query: Look up Ki: Nc1nc(-c2cc3ccccc3o2)nc2sc(CN3CCC(F)CC3)cc12
result: 348 nM
